molecular target: SRC Catalytic Domain (Homo sapiens); experiment: Differential Scanning Fluorimetry (DSF) Tm shift; assay type: binding; set-up: For all of them, we expressed and purified the catalytic domain separately; His-tag; made in house; host or cells: Escherichia coli; settings: 2 µM protein, 10 µM inhibitor, average of 3 experiments, each in duplicate
Sequence (P12931 270-523 limits assumed): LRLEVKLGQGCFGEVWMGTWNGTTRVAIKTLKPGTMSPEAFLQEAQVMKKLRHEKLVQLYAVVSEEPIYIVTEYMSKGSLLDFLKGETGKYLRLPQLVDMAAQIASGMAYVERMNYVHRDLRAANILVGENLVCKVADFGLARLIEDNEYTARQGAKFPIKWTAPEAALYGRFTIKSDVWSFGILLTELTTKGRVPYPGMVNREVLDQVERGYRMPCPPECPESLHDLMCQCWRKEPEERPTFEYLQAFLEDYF
Measured Attribute: Melting temperature (Tm) shift (degrees Celcius)

Compound	Measured Attribute	Unit Text	Experimental Result
CCCC(=O)Oc1ccc2[nH]c(C(=O)c3cc4ccccc4[nH]3)cc2c1	Melting temperature (Tm) shift	degrees Celcius	1.1
COc1cc2ncnc(Nc3ccc(OCc4ccccc4)cc3)c2cc1OC [EGFR/ErbB-2 Inhibitor]	Melting temperature (Tm) shift	degrees Celcius	1.4
COc1cc2ncnc(Nc3ccc(Oc4ccccc4)cc3)c2cc1OC [Src Kinase Inhibitor I]	Melting temperature (Tm) shift	degrees Celcius	2.1
